Reported Ki values are given for each entry in this list.
# test target: tryptase
# experiment summary: In vitro tryptase inhibition assay
# condition label: tosyl-Gly-Pro-Lys-p-nitroanilide 0.5 mM; 1 h preincubation at room temperature; pH 8.2

| smiles str | Ki / nM |
| --- | --- |
| CN(Cc1ccc(CN(C)C(=O)CNC(=O)NC[C@H]2CC[C@H](CN)CC2)cc1)C(=O)CNC(=O)NC[C@H]1CC[C@H](CN)CC1 | 130 |
| NCc1ccc(C(=O)NCCNC(=O)OCc2ccc(COC(=O)NCCNC(=O)c3ccc(CN)cc3)cc2)cc1 | 396 |
| N=C(N)Nc1ccc(CNC(=O)CCNC(=O)OCc2ccc(COC(=O)NCCC(=O)NCc3ccc(NC(=N)N)cc3)cc2)cc1 | 9 |
| N=C(N)Nc1ccc(CNC(=O)CCCC(=O)NCc2ccc(CNC(=O)CCCC(=O)NCc3ccc(NC(=N)N)cc3)cc2)cc1 | 100 |
| N=C(N)Nc1ccc(CNC(=O)CNC(=O)OCc2ccc(COC(=O)NCC(=O)NCc3ccc(NC(=N)N)cc3)cc2)cc1 | 20 |
| CC1(C)O[C@@H](C(=O)NCc2ccc(CN)cc2)[C@H](C(=O)NCc2ccc(CNC(=O)[C@@H]3OC(C)(C)O[C@H]3C(=O)NCc3ccc(CN)cc3)cc2)O1 | 643 |

====

# test target: tryptase
# experiment summary: In vitro tryptase inhibition assay
# condition label: tosyl-Gly-Pro-Lys-p-nitroanilide 0.5 mM; 1 h preincubation at room temperature; pH 8.2
pKi: −log10 of the molar value.
# if value of pKi reaches 7, tag Yes; if it stays below, tag No

| molecule | test target | category label |
| --- | --- | --- |
| NCC1CCC(C(=O)NCCCC(=O)NCc2ccc(CNC(=O)CCCNC(=O)C3CCC(CN)CC3)cc2)CC1 (stereo not shown) | tryptase | No |
| CN(Cc1ccc(CN(C)C(=O)c2ccc(CNC(=O)NC[C@H]3CC[C@H](CN)CC3)cc2)cc1)C(=O)c1ccc(CNC(=O)NC[C@H]2CC[C@H](CN)CC2)cc1 | tryptase | No |
| NC[C@H]1CC[C@H](C(=O)NCCCNC(=O)OCc2ccc(COC(=O)NCCCNC(=O)[C@H]3CC[C@H](CN)CC3)cc2)CC1 | tryptase | No |
| N=C(N)Nc1ccc(CNC2=CCCC(=O)N2C(=O)OCc2ccc(COC(=O)N3C(=O)CCC=C3NCc3ccc(NC(=N)N)cc3)cc2)cc1 | tryptase | No |
| NCc1ccc(CNC(=O)CCC(=O)NCc2ccc(CNC(=O)CCC(=O)NCc3cccc(CN)c3)cc2)cc1 | tryptase | Yes |
| NCc1ccc(CNC(=O)CCC(=O)Nc2ccc(NC(=O)CCC(=O)NCc3ccc(CN)cc3)cc2)cc1 | tryptase | Yes |
| N=C(N)Nc1ccc(CNC(=O)[C@H](Cc2ccccc2)NC(=O)OCc2ccc(COC(=O)N[C@@H](Cc3ccccc3)C(=O)NCc3ccc(NC(=N)N)cc3)cc2)cc1 | tryptase | No |
| NCC1CCCC(CNC(=O)CCC(=O)NCc2ccc(CNC(=O)CCC(=O)NCC3CCCC(CN)C3)cc2)C1 (stereo not shown) | tryptase | No |
| N=C(N)Nc1ccc(CNC(=O)CNC(=O)NCc2ccc(CNC(=O)NCC(=O)NCc3ccc(NC(=N)N)cc3)cc2)cc1 | tryptase | Yes |
| NCc1ccc(C(=O)NCCCNC(=O)OCc2ccc(COC(=O)NCCCNC(=O)c3ccc(CN)cc3)cc2)cc1 | tryptase | Yes |
| C[C@@H](NC(=O)OCc1ccc(COC(=O)N[C@H](C)C(=O)NCc2ccc(NC(=N)N)cc2)cc1)C(=O)NCc1ccc(NC(=N)N)cc1 | tryptase | No |
| CN(Cc1ccc(CN(C)C(=O)CN(C)C(=O)NC[C@H]2CC[C@H](CN)CC2)cc1)C(=O)CN(C)C(=O)NC[C@H]1CC[C@H](CN)CC1 | tryptase | No |
